The measured values listed here are drawn from patent US20230257372A1.

# Measurement Target: human recombinant HDAC6 (Homo sapiens, UniProt Q9UBN7)
# Construct: purchased Calbiochem Inc. 382180
# Assay Overview: HDAC6 enzyme activity inhibition (HDAC Fluorimetric Drug Discovery Kit)
# Type: biochemical
# Study Conditions: human recombinant HDAC6, same protocol as HDAC1
pIC50: −log10 of the molar value.
Endpoint Label: pIC50

Sample records with pIC50:
Chemical Smiles	Endpoint Value
CN1CC(N2CCC(c3cccc(-c4cn(Cc5ncc(-c6nnc(C(F)F)o6)cc5F)nn4)c3)CC2)C1	6.87
CCN1CCN(c2cc(-c3cn(Cc4ccc(-c5nnc(C(F)F)o5)cn4)nn3)ccn2)CC1	7.85
CC(C)N1CC(c2cccc(-c3cn(Cc4ccc(-c5nnc(C(F)F)o5)cn4)nn3)c2)C1	7.97
Fc1cc(-c2nnc(C(F)F)o2)cnc1Cn1cc(-c2ccc(CN3CCC3)s2)nn1	7.37
CN1CCN(Cc2ccc(-c3cn(Cc4ccc(-c5nnc(C(F)F)o5)cc4)nn3)cc2)CC1	7.37

A. FC(F)c1nnc(-c2ccc(Cn3cc(-c4cccc(C5CN(C6CCC6)C5)c4)nn3)nc2)o1
B. Fc1cc(-c2nnc(C(F)F)o2)ccc1Cn1cc(-c2ccc(C3CN(C4COC4)C3)cc2)nn1
Could you check which of A and B has a smaller value for pIC50? Indicate your choice by writing its label.
B

----------
# Measurement Target: human recombinant HDAC6 (Homo sapiens)
# Construct: purchased Calbiochem Inc. 382180
# Assay Overview: HDAC6 enzyme activity inhibition (HDAC Fluorimetric Drug Discovery Kit)
# Assay type: biochemical
# Study Conditions: human recombinant HDAC6, same protocol as HDAC1
Endpoint Label: IC50 (nM)

Sample records with IC50:
Chemical Smiles	Display Unit	IC50
Fc1cc(-c2nnc(C(F)F)o2)cnc1Cn1cc(-c2cc(Cl)cc(CN3CCCC3)c2)nn1	nM	92.4
Fc1cc(-c2nnc(C(F)F)o2)cnc1Cn1cc(-c2cccc(C3CCN(C4CCC4)CC3)c2)nn1	nM	44.5
CCN1CCN(c2cc(-c3cn(Cc4ccc(-c5nnc(C(F)F)o5)cc4F)nn3)ccn2)CC1	nM	24.1
Fc1cc(-c2nnc(C(F)F)o2)ccc1Cn1cc(-c2ccnc3[nH]ccc23)nn1	nM	13
CC(C)(C)OC(=O)N1CCC(c2cccc(-c3cn(Cc4ncc(-c5nnc(C(F)F)o5)cc4F)nn3)c2)CC1	nM	551
Fc1cc(-c2nnc(C(F)F)o2)ccc1Cn1cc(-c2cc3c(s2)CNCC3)nn1	nM	54.2
CCN1CC(c2cccc(-c3cn(Cc4ccc(-c5nnc(C(F)F)o5)cn4)nn3)c2)C1	nM	14.2
Fc1cc(-c2cn(Cc3ncc(-c4nnc(C(F)F)o4)cc3F)nn2)ccc1CN1CCC1	nM	39.6

A. FC(F)c1nnc(-c2ccc(Cn3cc(-c4ccnc(N5CCN(C6COC6)CC5)c4)nn3)nc2)o1
B. Fc1cc(-c2nnc(C(F)F)o2)cnc1Cn1cc(-c2ccccc2)nn1
C. Fc1cc(-c2nnc(C(F)F)o2)cnc1Cn1cc(-c2cc(Cl)cc(CN3CCC3)c2)nn1
D. CN1CC(NCc2ccc(-c3cn(Cc4ccc(-c5nnc(C(F)F)o5)cn4)nn3)cc2)C1
Sort the 4 molecules by IC50; largest first, smallest last. To answer, write out the labels according to the requested order.
C, B, D, A

----------
# Measurement Target: human recombinant HDAC6 (Homo sapiens, UniProt Q9UBN7)
# Construct: purchased Calbiochem Inc. 382180
# Sequence (Q9UBN7 1-1215): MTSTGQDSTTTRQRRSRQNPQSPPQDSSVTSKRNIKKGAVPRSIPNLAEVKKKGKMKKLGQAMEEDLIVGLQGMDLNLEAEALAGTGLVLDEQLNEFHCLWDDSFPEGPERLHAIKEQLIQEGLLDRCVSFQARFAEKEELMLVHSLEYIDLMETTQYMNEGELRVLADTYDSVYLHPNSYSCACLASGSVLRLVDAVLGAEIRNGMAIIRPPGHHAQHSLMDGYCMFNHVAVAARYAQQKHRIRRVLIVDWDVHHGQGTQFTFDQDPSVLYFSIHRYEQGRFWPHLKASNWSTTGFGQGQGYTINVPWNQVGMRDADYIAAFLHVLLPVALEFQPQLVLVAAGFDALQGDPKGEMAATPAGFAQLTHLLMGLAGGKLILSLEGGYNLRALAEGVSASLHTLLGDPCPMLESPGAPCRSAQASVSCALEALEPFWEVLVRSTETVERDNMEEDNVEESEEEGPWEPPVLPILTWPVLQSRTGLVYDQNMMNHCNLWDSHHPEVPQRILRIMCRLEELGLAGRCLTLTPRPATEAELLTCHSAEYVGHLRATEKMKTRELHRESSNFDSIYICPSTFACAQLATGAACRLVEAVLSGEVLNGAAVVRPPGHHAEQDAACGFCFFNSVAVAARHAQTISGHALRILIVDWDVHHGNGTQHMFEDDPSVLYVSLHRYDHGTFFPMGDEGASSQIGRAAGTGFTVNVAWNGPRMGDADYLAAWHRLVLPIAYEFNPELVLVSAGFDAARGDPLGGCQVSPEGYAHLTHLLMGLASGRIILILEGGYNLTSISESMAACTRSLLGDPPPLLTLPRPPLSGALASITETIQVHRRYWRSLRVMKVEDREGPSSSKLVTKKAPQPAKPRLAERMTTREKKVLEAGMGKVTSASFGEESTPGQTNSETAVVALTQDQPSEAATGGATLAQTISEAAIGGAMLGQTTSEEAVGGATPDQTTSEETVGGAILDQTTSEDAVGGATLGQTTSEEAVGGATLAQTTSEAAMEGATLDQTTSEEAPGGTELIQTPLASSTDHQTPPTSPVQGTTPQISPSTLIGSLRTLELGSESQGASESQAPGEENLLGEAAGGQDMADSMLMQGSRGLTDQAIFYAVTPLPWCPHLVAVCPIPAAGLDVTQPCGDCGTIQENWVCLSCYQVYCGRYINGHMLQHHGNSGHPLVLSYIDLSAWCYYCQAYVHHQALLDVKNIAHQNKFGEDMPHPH
# Assay Overview: HDAC6 enzyme activity inhibition (HDAC Fluorimetric Drug Discovery Kit)
# Assay type: biochemical
# Study Conditions: HDAC1 IC50 / HDAC6 IC50
Endpoint Label: HDAC6 selectivity (fold)

Sample records with HDAC6 selectivity (fold):
Compound	Endpoint Label	Display Unit	Endpoint Value
CS(=O)(=O)N1CCC(c2cn(Cc3ccc(-c4nnc(C(F)F)o4)cn3)nn2)CC1 [Compound 3812]	HDAC6 selectivity (fold)	fold	446
CCC(=O)N1CCN(c2cccc(-c3cn(Cc4ccc(-c5nnc(C(F)F)o5)cc4F)nn3)c2)CC1 [Compound 4377]	HDAC6 selectivity (fold)	fold	1039
CC(=O)N1CCCC(c2cn(Cc3ccc(-c4nnc(C(F)F)o4)cn3)nn2)C1 (stereo not shown) [Compound 4004]	HDAC6 selectivity (fold)	fold	150
Cc1ccc(-c2cn(Cc3ccc(-c4nnc(C(F)F)o4)cn3)nn2)cn1 [Compound 3925]	HDAC6 selectivity (fold)	fold	1424
FC(F)c1nnc(-c2ccc(Cn3cc(-c4cncnc4)nn3)nc2)o1 [Compound 3960]	HDAC6 selectivity (fold)	fold	473
CN1CCN(c2cccc(-c3cn(Cc4ccc(-c5nnc(C(F)F)o5)cc4)nn3)c2)CC1 [Compound 4336]	HDAC6 selectivity (fold)	fold	1543

1. C[C@@H]1CN(c2cccc(-c3cn(Cc4ccc(-c5nnc(C(F)F)o5)cc4F)nn3)c2)C[C@H](C)N1C [Compound 4443]
2. CC(C)N1CCc2cc(-c3cn(Cc4ccc(-c5nnc(C(F)F)o5)cc4F)nn3)ccc2C1 [Compound 4360]
Lab note: check whether 1 or 2 shows the higher recorded HDAC6 selectivity (fold). Indicate your choice by writing its label.
1
(1: 2183 fold, 2: 881 fold)

----------
# Measurement Target: human recombinant HDAC6 (Homo sapiens)
# Construct: purchased Calbiochem Inc. 382180
# Assay Overview: HDAC6 enzyme activity inhibition (HDAC Fluorimetric Drug Discovery Kit)
# Format: biochemical
# Study Conditions: human recombinant HDAC6; IC50 calculated with GraphPad Prism
# Description: An experiment was conducted to identify the selectivity of the compound represented by formula I of the present invention to HDAC6 through an experiment on HDAC1 and HDAC6 enzyme activity inhibition. […]
pIC50: −log10 of the molar value.
Endpoint Label: pIC50

Molecule	Measurement Target	pIC50
CC(C)N1CCN(c2ccc(F)c(-c3cn(Cc4ccc(-c5nnc(C(F)F)o5)cc4)nn3)c2)CC1 [Compound 4453]	human recombinant HDAC6 (Homo sapiens)	7.80
CN(C)CC(=O)Nc1cccc(-c2cn(Cc3ccc(-c4nnc(C(F)F)o4)cc3)nn2)c1 [Compound 4329]	human recombinant HDAC6 (Homo sapiens)	7.21

P. FC(F)c1nnc(-c2ccc(Cn3cc(-c4cccc(N5C[C@@H]6C[C@H]5CN6)c4)nn3)cc2)o1 [Compound 4317]
Q. Fc1cc(-c2nnc(C(F)F)o2)ccc1Cn1cc(-c2cc(C(F)(F)F)cc(C(F)(F)F)c2)nn1 [Compound 3696]
Could you check which of P and Q has a smaller value for pIC50? Indicate your choice by writing its label.
Q
